# experimental_target: T1, mouse MAdCAM expressed on cells (mouse, UniProt Q61826 22-405)
# T1 construct: whole, on cells
# T1 sequence (looked up): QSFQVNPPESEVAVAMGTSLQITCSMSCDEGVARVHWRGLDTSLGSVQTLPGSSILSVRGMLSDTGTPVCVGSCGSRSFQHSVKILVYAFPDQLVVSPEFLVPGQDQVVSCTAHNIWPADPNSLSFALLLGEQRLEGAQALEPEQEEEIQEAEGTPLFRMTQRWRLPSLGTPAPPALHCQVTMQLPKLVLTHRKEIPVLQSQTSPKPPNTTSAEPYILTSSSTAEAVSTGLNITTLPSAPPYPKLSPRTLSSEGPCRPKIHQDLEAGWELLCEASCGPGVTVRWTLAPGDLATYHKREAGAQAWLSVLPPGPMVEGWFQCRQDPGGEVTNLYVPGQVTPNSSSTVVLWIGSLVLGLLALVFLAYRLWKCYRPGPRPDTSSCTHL
# run_description: cell binding
reported_metric: binding result

# example entries with known answers
- binder: "MAdCAM antibody Table 1 clone 54 (scFv) scFv: EVQLLESGGGLVQPGGSLRLSCAASGFTFGDYAMSWVRQAPGKGLEWVAVVSYDGTNKYYADSVKGRFTISRDNSKNTLYLQMNSLRAEDTAVYYCAKDICSSTSCYFDLWGRGTLVTVSSGGGGSGGGGSGGGGSGGGGSDIQMTQSPSSLSASVGDRVTITCRASQNINNYVNWYQQKPGKAPKLLIYDASNLETGVPSRFSGSGSGTDFTLTISSLQPEDFATYYCQQANSFPPTFGQGTRLEIK"
  binding result: "no binding"
- binder: "MAdCAM antibody Table 1 clone 12 (scFv) scFv: QVQLVQSGAEVKKPGASVKVSCKASGYTFTGYYMHWVRQAPGQGLEWMGWIGPNSGDTNYAQKFQGRVTMTRDTSTSTVYMELSSLRSEDTAVYYCARDLDHNWYFDLWGRGTLVTVSSGGGGSGGGGSGGGGSGGGGSDIVMTQSPLSLPVTPGEPASISCRSSQSLLHSNGYNYLDWYLQKPGQSPQLLIYSSSNRAPGVPDRFSGSGSGTDFTLKISRVEAEDVGVYYCMQALHIPLTFGGGTKVEIK"
  binding result: "no binding"
- binder: "MAdCAM antibody Table 1 clone 3 (scFv) scFv: QVQLVQSGAEVKKPGASVKVSCKASGYPFIGQYLHWVRQAPGQGLEWMGIINPSGGSTSYAQKFQGRVTMTRDTSTSTVYMELSSLRSEDTAVYYCAREGRLSYGMDAWGQGTLVTVSSGGGGSGGGGSGGGGSGGGGSDIQMTQSPSSLSASVGDRVTITCRASQSISSYLAWYQQKPGKAPKLLIYGASTLESGVPSRFSGSGSGTDFTLTISSLQPEDFATYYCQQTWGPPFTFGQGTKLEIK"
  binding result: "binds"
- binder: "MAdCAM antibody Table 1 clone 15 (scFv) scFv: QVQLVQSGAEVKKPGSSVKVSCKASGYTFTNYYMHWVRQAPGQGLEWMGGIIPIVDRVKYAQKFQGRVTITADESTSTAYMELSSLRSEDTAVYYCAKGRYTVNYYYGMDVWGQGTTVTVSSGGGGSGGGGSGGGGSGGGGSDIQMTQSPSSLSASVGDRVTITCQANQDISNYLNWYQQKPGKAPKLLIYRASKLEAGVPSRFSGSGSGTDFTLTISSLQPEDFATYYCQQSSEIPYSFGQGTKLEIK"
  binding result: "no binding"
- binder: "MAdCAM antibody Table 1 clone 35 (scFv) scFv: EVQLLESGGGLVQPGGSLRLSCAASGFSFSSYTMNWVRQAPGKGLEWVSFITSSSRTIYYADSVKGRFTISRDNSKNTLYLQMNSLRAEDTAVYYCARDRRGDYGDSWYFDLWGRGTLVTVSSGGGGSGGGGSGGGGSGGGGSEIVMTQSPATLSVSPGERATLSCRASQSVRNYLAWYQQKPGQAPRLLIYGASTRATGIPARFSGSGSGTEFTLTISSLQSEDFAVYYCQQYGSSPLTFGGGTKVEIK"
  binding result: "no binding"
- binder: "MAdCAM antibody Table 1 clone 39 (scFv) scFv: QVQLVQSGAEVKKPGASVKVSCKASGYTFTSYYMHWVRQAPGQGLEWMGWMNPNSGNTGYAQKFQGRVTMTRDTSTSTVYMELSSLRSEDTAVYYCARDLGYYDSSGYFGAFDIWGQGTTVTVSSGGGGSGGGGSGGGGSGGGGSDIQMTQSPSSLSASVGDRVTITCQSSEDISSSLNWYQQKPGKAPKLLIYAASSLQIGVPSRFSGSGSGTDFTLTISSLQPEDFATYYCQQTYSTPYTFGQGTKVEIK"
  binding result: "no binding"
- binder: "MAdCAM antibody Table 1 clone 4 (scFv) scFv: QVQLVQSGAEVKKPGASVKVSCKASGGTFSSYAISWVRQAPGQGLEWMGSINPSGDTTSYAQKFQGRVTMTRDTSTSTVYMELSSLRSEDTAVYYCAKDKAQWLVGYFDYWGQGTLVTVSSGGGGSGGGGSGGGGSGGGGSDIQMTQSPSSLSASVGDRVTITCQASQDISNSLNWYQQKPGKAPKLLIYAASSLQSGVPSRFSGSGSGTDFTLTISSLQPEDFATYYCQQSYSSVITFGQGTKVEIK"
  binding result: "binds"
- binder: "MAdCAM antibody Table 1 clone 31 (scFv) scFv: QVQLVQSGAEVKKPGASVKVSCKASGYTFTSYYMHWVRQAPGQGLEWMGIINPSGGSTSYAQKFQGRVTMTRDTSTSTVYMELSSLRSEDTAVYYCARDTGYSYGRYYYYGMDVWGQGTLVTVSSGGGGSGGGGSGGGGSGGGGSDIQMTQSPSSLSASVGDRVTITCRASQSIGRWLAWYQQKPGKAPKLLIYDASNLQSGVPSRFSGSGSGTDFTLTISSLQPEDFATYYCQQSYSIPITFGQGTKVEIK"
  binding result: "no binding"

Record request: binding result value, item MAdCAM antibody Table 1 clone 45 (scFv) scFv: EVQLLESGGGLVQPGGSLRLSCAASGFSVSSNYMSWVRQAPGKGLEWVAGISYDGSSKPYADSVKGRFTISRDNSKNTLYLQMNSLRAEDTAVYYCARSRGIAARPLQHWGQGTLVTVSSGGGGSGGGGSGGGGSGGGGSDIVMTQSPDSLAVSLGERATINCKSSQSVLYSSNNKNYLAWYQQKPGQPPKLLIYWASTRQSGVPDRFSGSGSGTDFTLTISSLQAEDVAVYYCHQYYGHPPTFGGGTKVEIK no binding
